Experiment: Cytotoxicity against […] infected with JEV-SA14 incubated for 7 days by CellTiter 96 luminescent cell viability assay
Assay type: toxicity, cell-based
Conditions: time 7 day
PROPERTY: CC50 at 168 h (µM)
Give just the number in µM; leave the unit off.

Field: example entries. Status: answers known.
{"CPD_SMILES": "CN(C)CCn1nnnc1Sc1c(Cl)cc(C(=O)c2ccc(C(F)(F)F)cc2O)n1-c1c(C(=O)c2ccc(C(F)(F)F)cc2O)[nH]c(Cl)c1Cl", "REPORTED": 4.14}
{"CPD_SMILES": "O=C(c1ccc(C(F)(F)F)cc1O)c1[nH]c(Cl)c(Cl)c1-n1c(C(=O)c2ccc(C(F)(F)F)cc2O)cc(Cl)c1SCCCO", "REPORTED": 1.42}

Next compound, CC50 at 168 h to be filled in.
// query Name the recorded CC50 at 168 h for O=C(c1ccc(C(F)(F)F)cc1O)c1[nH]c(Cl)c(Cl)c1-n1c(C(=O)c2ccc(C(F)(F)F)cc2O)cc(Cl)c1Sc1ncc[nH]1 .
// result 3.75

====

Assay: Selectivity index, ratio of CC50 for […] to IC50 for JEV-SA14 infected in […]
Assay type: toxicity, cell-based
Conditions: read-out: Ratio CC50/IC50
PROPERTY: selectivity ratio
Keep it simple and answer with nothing but the number.

{"CPD_SMILES": "[N-]=[N+]=NCCCSc1c(Cl)cc(C(=O)c2ccc(C(F)(F)F)cc2O)n1-c1c(C(=O)c2ccc(C(F)(F)F)cc2O)[nH]c(Cl)c1Cl", "REPORTED": 3.44}

// query So what's the measured selectivity ratio for this one? O=C(c1ccc(C(F)(F)F)cc1O)c1[nH]c(Cl)c(Cl)c1-n1c(C(=O)c2ccc(C(F)(F)F)cc2O)cc(Cl)c1Sc1nc[nH]n1
// result 0.64

// query Do the same for Cn1nnnc1Sc1c(Cl)cc(C(=O)c2ccc(C(F)(F)F)cc2O)n1-c1c(C(=O)c2ccc(C(F)(F)F)cc2O)[nH]c(Cl)c1Cl please
// result 0.89

// query // same read-out, input: O=C(c1ccc(C(F)(F)F)cc1O)c1[nH]c(Cl)c(Cl)c1-n1c(C(=O)c2ccc(C(F)(F)F)cc2O)cc(Cl)c1Sc1cccs1
// result 4.59

====

Test system: Yellow fever virus
Test: Antiviral activity against YFV-17D infected in […] incubated for 7 days by CellTiter 96 luminescent cell viability assay
Format: functional, organism-based
Conditions: 168 h
Below: a set of entries, each annotated with reported pIC50.
Scale note: pIC50 = -log10(concentration in M).

{"CPD_SMILES": "C#C[C@@]1(O)[C@H](O)[C@@H](CO)O[C@H]1n1ccc2c(N)ncnc21", "PROPERTY": "pIC50", "REPORTED": 5.72}
{"CPD_SMILES": "O=C(c1ccc(C(F)(F)F)cc1O)c1[nH]c(Cl)c(Cl)c1-n1c(C(=O)c2ccc(C(F)(F)F)cc2O)cc(Cl)c1Sc1nc2ccccc2[nH]1", "PROPERTY": "pIC50", "REPORTED": 4.63}
{"CPD_SMILES": "O=C(c1ccc(C(F)(F)F)cc1O)c1[nH]c(Cl)c(Cl)c1-n1c(C(=O)c2ccc(C(F)(F)F)cc2O)cc(Cl)c1Sc1cccs1", "PROPERTY": "pIC50", "REPORTED": 7.30}
{"CPD_SMILES": "O=C(c1ccc(C(F)(F)F)cc1O)c1[nH]c(Cl)c(Cl)c1-n1c(C(=O)c2ccc(C(F)(F)F)cc2O)cc(Cl)c1SCCO", "PROPERTY": "pIC50", "REPORTED": 6.22}
{"CPD_SMILES": "O=C(c1ccc(C(F)(F)F)cc1O)c1[nH]c(Cl)c(Cl)c1-n1c(C(=O)c2ccc(C(F)(F)F)cc2O)cc(Cl)c1Sc1cccc[n+]1[O-]", "PROPERTY": "pIC50", "REPORTED": 5.50}

// query Find the measured pIC50: item O=C(c1ccc(C(F)(F)F)cc1O)c1[nH]c(Cl)c(Cl)c1-n1c(C(=O)c2ccc(C(F)(F)F)cc2O)cc(Cl)c1SCCCO , target or system Yellow fever virus.
// result 6.70

// query # repeat for O=C(c1ccc(C(F)(F)F)cc1O)c1[nH]c(Cl)c(Cl)c1-n1c(C(=O)c2ccc(C(F)(F)F)cc2O)cc(Cl)c1Sc1ncc[nH]1
// result 5.89

// query Now give it for O=C(c1ccc(C(F)(F)F)cc1O)c1[nH]c(Cl)c(Cl)c1-n1c(C(=O)c2ccc(C(F)(F)F)cc2O)cc(Cl)c1Sc1nnnn1CCO too.
// result 5.08

// query // next record CN(C)CCn1nnnc1Sc1c(Cl)cc(C(=O)c2ccc(C(F)(F)F)cc2O)n1-c1c(C(=O)c2ccc(C(F)(F)F)cc2O)[nH]c(Cl)c1Cl
// result 5.71
